The reported numbers originate from PubChem BioAssay (NCI).

test system: OVCAR-4 ovarian; assay: NCI tumour cell line growth inhibition, 48 h
Test readout: TGI

The reported TGI of the molecule "CN(C)Cc1c(O)ccc2c1c1c(n2C)C(=O)c2ccccc2C1=O" was 32.3 µM

The reported TGI of the molecule "CS(=O)(=O)N1CCC(n2c(=O)c(Oc3ccc(F)cc3F)cc3cnc(NC4CCOCC4)nc32)CC1" was > 25 µM

The reported TGI of the molecule "O=C1c2cc(I)ccc2N2CCN=C2N1Cc1ccccc1" was > 100 µM

The reported TGI of the molecule "Clc1cc(-c2ccccc2)nc(Nc2nc3ccccc3[nH]2)n1" was 33 µM

The reported TGI of the molecule CC(C)C(Nc1ncnc2nc[nH]c12)C(=O)O (stereo not given) was > 100 µM

The reported TGI of the molecule "COc1cc(CC(C)=O)cc(OC)c1" was > 100 µM

The reported TGI of the molecule O=C(/C=C/C12c3ccccc3C(c3ccccc31)C1C(=O)N(c3ccc(Cl)cc3)C(=O)C12)c1ccccn1 (stereo not given) was > 30.9 µM

The reported TGI of the molecule "Fc1cc(F)c(F)c(S)c1F" was > 100 µM

The reported TGI of the molecule "Clc1ccc(CCNC2(c3cc4ccccc4s3)CCCCC2)cc1Cl" was > 100 µM

The reported TGI of the molecule CC1CCCC(C(=O)CC2CC(=O)NC(=O)C2)C1=O (stereo not given) was > 100 µM

The reported TGI of the molecule "COC(=O)c1c(O)ccc2c1c1cc3ccccc3cc1n2Cc1cc(OC)cc(OC)c1" was > 66.9 µM

The reported TGI of the molecule O=C(Cc1ccccc1[N+](=O)[O-])C(CO)c1ccccc1[N+](=O)[O-] (stereo not given) was > 100 µM

The reported TGI of the molecule "CCC(C)(C)c1cc(O)c(C(C)(C)CC)cc1O" was 14.1 µM

The reported TGI of the molecule "Cc1cc2c(c(C(=O)NCC(=O)N[C@@H](C)C(=O)OCc3ccccc3)c1)Oc1c(cc(C)cc1C(=O)NCC(=O)N[C@@H](C)C(=O)OCc1ccccc1)S2" was > 100 µM

The reported TGI of the molecule "C[C@@]1(CCCCCCCCCCc2ccccc2)C[C@@]2(C)OC(=O)C[C@H]2OO1" was 5.03 µM

The reported TGI of the molecule CC(C)(C)COC(=O)C(C)(C)NC(=O)C(CC(=O)OCc1ccccc1)NC(=O)OCc1ccccc1 (stereo not given) was > 100 µM

The reported TGI of the molecule "CCOC(=O)/C=C(/C(=O)OCC)n1cc(C)c(=O)n(Cc2cnnn2COCCOC(C)=O)c1=O" was 47 µM

The reported TGI of the molecule "O[C@@H]1C[C@H](Cl)c2c(Cl)sc(Cl)c21" was > 100 µM

The reported TGI of the molecule "CN1CCN(C(=O)[C@@]2(C)CC[C@]3(C)CC[C@]4(C)C(=CC[C@@H]5[C@@]6(C)CCC(=O)NC(C)(C)[C@@H]6CC[C@]54C)[C@@H]3C2)CC1" was 13 µM

The reported TGI of the molecule "Cc1[nH]c(=O)nc(N/N=C/c2ccc(O)cc2)c1C(=O)Nc1ccc(O)cc1" was > 100 µM

###

test system: IGROV1 ovarian; experiment: NCI tumour cell line growth inhibition, 48 h
Decide by TGI: equal to or exceeding 30 µM means Condition met, less means Condition not met.

TGI >= 30 µM for C=C(C)[C@@H](O)[C@H](O)C[C@H](C)C1CC[C@]2(C)C1=CC[C@@H]1[C@@]3(C)CC[C@@H](OC(C)=O)C(C)(C)[C@@H]3C[C@@H](OC3OC(COC(C)=O)C(O)C(O)C3O)[C@]12C (stereo not given in full) ?
Condition not met

TGI >= 30 µM for "Cc1ccc(-c2nc3nc(-c4ccc(F)cc4)nc(N4CCNCC4)c3o2)cc1" ?
Condition not met

TGI >= 30 µM for CCOP(=O)(CCCC(O)CNc1nc(N)nc(Cl)c1N=Nc1ccc(Cl)cc1)OCC (stereo not given) ?
Condition not met

TGI >= 30 µM for "CCOC(=O)/C=C(/C(=O)OCC)n1cc(C)c(=O)n(Cc2cnnn2COCCOC(C)=O)c1=O" ?
Condition met

TGI >= 30 µM for "CCOC(=O)c1c(NS(=O)(=O)c2ccc(C)cc2)sc2c1CCCC2" ?
Condition met

TGI >= 30 µM for COc1cccc2c1C(=O)c1c(O)c3c(c(O)c1C2=O)C[C@@](O)(C(C)=O)CC3S(=O)(=O)O (stereo not given in full) ?
Condition met

TGI >= 30 µM for COC1/C=C/C=C(/C)Cc2cc(O)c(Cl)c(c2)N(C)C(=O)CC(OC(=O)C(C)C)C2(C)OC2C(C)C2CC1(O)NC(=O)O2 (stereo not given) ?
Condition met

TGI >= 30 µM for "O=C(C=Nc1ccccc1C(=O)[O-])c1cccs1.O=C(C=Nc1ccccc1C(=O)[O-])c1cccs1.[Ni+2]" ?
Condition met

TGI >= 30 µM for O=C1/C(=C/c2ccc(O)cc2)CCCC1CN1CCCCC1 (stereo not given) ?
Condition not met

###

test system: KM20L2 colon; assay: NCI tumour cell line growth inhibition, 48 h
Test readout: TGI

The reported TGI of the compound "CCc1cc(C)cc2[n+]1CC=C2" was 95.6 µM

The reported TGI of the compound "O=C(O)CN(c1ccccc1)S(=O)(=O)c1cccc([N+](=O)[O-])c1" was > 100 µM

The reported TGI of the compound COC(=O)C1CSC(c2csc(CCN)n2)=N1 (stereo not drawn) was > 100 µM

###

system: U251 CNS
Permitted responses: active, inactive

Dear all, I need the recorded test outcome for "O=[N+]([O-])c1ccc(/C=C/c2nc3ccc(Cl)cc3[nH]2)cc1" , thank you.
inactive

Dear all, I need the recorded test outcome for "CCC(C)(C)c1cc(O)c(C(C)(C)CC)cc1O" , thank you.
inactive

Dear all, I need the recorded test outcome for "C[C@H](c1ccc(F)cc1CCCC(=O)O)N(c1cc(F)ccc1F)S(=O)(=O)c1ccc(Cl)cc1" , thank you.
inactive

Dear all, I need the recorded test outcome for "CNC(=O)c1nn(C)c2c1C(C)(C)Cc1cnc(Nc3cccc(N4CCN(C)CC4)c3)nc1-2" , thank you.
active

Dear all, I need the recorded test outcome for "COc1ccc(/C=C/C(=O)c2c(O)ccc3c(C)c(C(=O)O)oc23)cc1" , thank you.
inactive

Dear all, I need the recorded test outcome for "C/C(CCC(=O)O)=N/Nc1ccc([N+](=O)[O-])cc1" , thank you.
inactive

Dear all, I need the recorded test outcome for "O=C1Nc2ccccc2/C1=C\c1c(-c2ccccc2)nc2sccn12" , thank you.
inactive

Dear all, I need the recorded test outcome for "CC1(C)CC(=O)C=C(/C=C/Sc2c(Cl)c(Cl)nc(Cl)c2Cl)C1" , thank you.
inactive

Dear all, I need the recorded test outcome for "CC(c1cc(Cl)ccc1O)c1cc(Cl)ccc1O" , thank you.
inactive

Dear all, I need the recorded test outcome for "COc1cc2c3c(n(CCCN(CCCN(CCCn4c5c(c6ccccc6c4=O)C(=O)c4ccccc4-5)C(=O)OC(C)(C)C)C(=O)OC(C)(C)C)c(=O)c2cc1OC)-c1cc2c(cc1C3=O)OCO2" , thank you.
inactive

Dear all, I need the recorded test outcome for O=C(c1ccccc1)C(Cl)C(Cl)c1ccccc1 (stereo not drawn) , thank you.
inactive

Dear all, I need the recorded test outcome for "CCN1CCC(CC(=O)Nc2n[nH]c3nnc(-c4cccc(F)c4F)cc23)CC1" , thank you.
inactive

Dear all, I need the recorded test outcome for "O=C(Cn1c(C(=O)c2ccc(Cl)cc2)nc(-c2ccc(Cl)cc2)c1-c1ccc(Cl)cc1)c1ccccc1" , thank you.
inactive

###

Task for the reader: assign each of the following compounds its reported TGI.
system: U251 CNS; test: NCI tumour cell line growth inhibition, 48 h

The reported TGI of the compound CC#C[C@]1(O)CCC2[C@@H]3CCC4=CC(=O)CCC4=C3[C@@H](c3ccc(N(C)C)cc3)C[C@@]21C (stereo partly specified) was 35.2 µM

The reported TGI of the compound "O=C(NC(=S)Nc1ccc([N+](=O)[O-])cc1)c1ccc2c(c1)Sc1ccccc1O2" was > 100 µM

The reported TGI of the compound CCc1ccccc1NC(=O)C(=O)C(C#N)c1ccccc1Cl (stereo unspecified) was > 100 µM

The reported TGI of the compound "CCc1cc(C)cc2[n+]1CC=C2" was > 100 µM

The reported TGI of the compound "COc1cccc(C=O)c1C(=O)c1cc(O)ccc1O" was > 100 µM

The reported TGI of the compound "O=C1Nc2ccccc2/C1=C\c1c(-c2ccccc2)nc2sccn12" was 7.96 µM

The reported TGI of the compound Cc1nn(C(=O)c2ccccc2O)c2c1C(c1ccc(O)cc1O)SC(N)=N2 (stereo unspecified) was > 10 µM

The reported TGI of the compound CN1C(=O)CC2(C)c3cc(O)cc(Br)c3N(C)C12 (stereo unspecified) was > 100 µM

The reported TGI of the compound "Fc1cc(F)c(F)c(S)c1F" was > 100 µM

The reported TGI of the compound "O=C(Cn1c(C(=O)c2ccc(Cl)cc2)nc(-c2ccc(Cl)cc2)c1-c1ccc(Cl)cc1)c1ccccc1" was > 100 µM

The reported TGI of the compound "CN1CCN(Cc2ccc(NC(=O)c3cncc(C#Cc4c(N)ncc5ccc(C#N)cc45)c3)cc2C(F)(F)F)CC1" was 1.67 µM
